Target: human C5aR(CD88) (Homo sapiens, UniProt P21730)
Construct: expressed in transfected cells; host or cells: rat basophilic leukemia cells (RBL)
Sequence (P21730 1-350): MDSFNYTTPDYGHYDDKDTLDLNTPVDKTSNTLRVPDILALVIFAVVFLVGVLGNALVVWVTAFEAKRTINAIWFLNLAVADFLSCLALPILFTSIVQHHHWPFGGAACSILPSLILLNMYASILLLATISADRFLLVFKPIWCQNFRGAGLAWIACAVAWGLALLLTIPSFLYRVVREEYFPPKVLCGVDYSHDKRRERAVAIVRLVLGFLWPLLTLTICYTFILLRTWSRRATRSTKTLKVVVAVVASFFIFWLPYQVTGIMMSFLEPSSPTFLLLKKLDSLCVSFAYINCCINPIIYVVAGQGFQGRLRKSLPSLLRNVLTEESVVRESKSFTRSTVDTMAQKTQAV
Assay: Determination of EC50-values in an enzyme release assay (agonistic activity)
Format: cell-based
Settings: agonistic activity, no C5a added; read-out: EC50
Positions of bridges follow the written chain, without caps; N, C: chain ends. Non-standard residues stand in square brackets, D forms with d. Residues, ends and D or L forms follow the SMILES beside them. Bta = N[C@@H](Cc1csc2ccccc12)C(=O)O; 2Thi = N[C@@H](Cc1cccs1)C(=O)O; dCha = N[C@H](CC1CCCCC1)C(=O)O; AllylGly = C=CC[C@H](N)C(=O)O; Pip = O=C(O)[C@@H]1CCCCN1; Nle = CCCC[C@H](N)C(=O)O; Orn = NCCC[C@H](N)C(=O)O
measuredParameter: EC50

// worked examples, EC50 included
compound	studyTarget	EC50
CC(=O)N[C@@H](Cc1cccs1)C(=O)N[C@@H](CCCN)C(=O)N1CCCC[C@H]1C(=O)N[C@H](CC1CCCCC1)C(=O)N[C@@H](Cc1csc2ccccc12)C(=O)N[C@@H](Cc1ccccc1)C(N)=O [Compound 67, Ac-Thi-Orn-Pip-cha-Bta-Phe-NH2] (Ac-[2Thi][Orn][Pip][dCha][Bta]F-NH2)	human C5aR(CD88) (Homo sapiens, UniProt P21730)	> 100 µM
CCCC[C@@H]1NC(=O)[C@H](Cc2c[nH]c3ccccc23)NC(=O)[C@@H](CC2CCCCC2)NC(=O)[C@@H]2CCCN2C(=O)[C@@H](NC(=O)[C@H](Cc2ccccc2)NC(C)=O)CCCNC1=O [Compound 28, Ac-Phe-[Orn-Pro-cha-Trp-Nle]] (Ac-F[Orn]P[dCha]W[Nle]; lactam 2-C)	human C5aR(CD88) (Homo sapiens, UniProt P21730)	> 1.43 µM
CC(=O)N[C@@H](Cc1ccccc1)C(=O)N[C@@H](Cc1c[nH]c2ccccc12)C(=O)N1CCC[C@H]1C(=O)N[C@H](CC1CCCCC1)C(=O)N[C@@H](Cc1c[nH]c2ccccc12)C(=O)N[C@@H](Cc1ccccc1)C(N)=O [Compound 84, Ac-Phe-Trp-Pro-cha-Trp-Phe-NH2] (Ac-FWP[dCha]WF-NH2)	human C5aR(CD88) (Homo sapiens, UniProt P21730)	> 100 µM

# evaluate next
[ask] Requested read-out: EC50. Entry: C=CC[C@@H]1NC(=O)[C@H](Cc2c[nH]c3ccccc23)NC(=O)[C@@H](CC2CCCCC2)NC(=O)[C@@H]2CCCN2C(=O)[C@@H](NC(=O)[C@H](Cc2ccccc2)NC(C)=O)CCCNC1=O [Compound 33, Ac-Phe-[Orn-Pro-cha-Trp-Eaf]] (Ac-F[Orn]P[dCha]W[AllylGly]; lactam 2-C)
[reply] > 1.43 µM

Where these numbers come from: patent US20080161232A1
